Biological target: T1, cynomolgus monkey IL-6 (Macaca fascicularis, UniProt P79341)
T1 construct: His
T1 sequence (P79341 28-212): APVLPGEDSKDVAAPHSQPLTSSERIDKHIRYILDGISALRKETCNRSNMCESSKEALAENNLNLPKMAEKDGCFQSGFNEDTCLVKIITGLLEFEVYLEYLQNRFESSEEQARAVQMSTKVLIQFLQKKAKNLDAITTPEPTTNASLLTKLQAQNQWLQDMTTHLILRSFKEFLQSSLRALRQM
Test: Surface plasmon resonance (Biacore), cynomolgus monkey IL-6
Format: binding
Details: cy/cyno; periplasmic fractions, 29B11 chain shuffled
valueKind: KA (M⁻¹)
Lab book: enter the figure in M⁻¹, no units written.

Please indicate KA recorded for 55C1a: 29B11 chain shuffled Fab, periplasmic fraction (antibody, V domains shown) VH: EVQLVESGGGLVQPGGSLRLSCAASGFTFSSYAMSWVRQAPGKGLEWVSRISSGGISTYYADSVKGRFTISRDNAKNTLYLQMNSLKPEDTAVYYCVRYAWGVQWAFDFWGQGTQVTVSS VL: ALNFMLTQPPSVSGSPGKTVTISCAGTSSDVGYGNYVSWYQQLPGTAPKLLIYNVNKRASGITDRFSGSKSGNTASLTISGLQSEDEADYYCASYRTGDNAAFGGGTKLTVLG
1.25e+09
